# TARGET_SYSTEM: Dihydrolipoyl dehydrogenase, mitochondrial (Sus scrofa)
# Sequence (whole entry): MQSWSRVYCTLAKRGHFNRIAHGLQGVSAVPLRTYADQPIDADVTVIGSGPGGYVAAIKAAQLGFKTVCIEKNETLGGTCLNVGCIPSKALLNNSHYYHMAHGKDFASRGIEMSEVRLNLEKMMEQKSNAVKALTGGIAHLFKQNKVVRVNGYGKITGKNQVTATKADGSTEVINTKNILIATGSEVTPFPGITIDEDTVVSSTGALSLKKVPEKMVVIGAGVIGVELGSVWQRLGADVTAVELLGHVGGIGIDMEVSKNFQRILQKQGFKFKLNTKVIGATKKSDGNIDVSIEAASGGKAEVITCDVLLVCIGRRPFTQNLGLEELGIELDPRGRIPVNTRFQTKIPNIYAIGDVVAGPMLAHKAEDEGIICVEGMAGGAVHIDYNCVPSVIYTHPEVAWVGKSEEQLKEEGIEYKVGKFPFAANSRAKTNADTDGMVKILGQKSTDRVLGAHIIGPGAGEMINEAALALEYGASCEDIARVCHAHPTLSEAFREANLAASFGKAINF
# EXPERIMENTAL_PROTOCOL: Ratio of cytochrome c reduction and NADH oxidation by pig heart LipDH (lipoamide dehydrogenase) at 50 uM concentration, in cytochrome c assay
Provide the reported Reduction of each item.
Only the number, expressed in %, is required.

input: Give reported Reduction value for "CC1=CC(=O)c2ccccc2C1=O"
output: 8.1

input: Give reported Reduction value for "CC1=C(CCC(=O)O)C(=O)c2c(O)cccc2C1=O"
output: 1.6

input: Give reported Reduction value for "CC1=C(CCC(=O)NCCCN2CCN(C)CC2)C(=O)c2ccccc2C1=O"
output: 0.8

input: Give reported Reduction value for "CC1=CC(=O)c2c(O)cccc2C1=O"
output: 15.4

input: Give reported Reduction value for "CC1=C(CCC(=O)NCCCN2CCN(C)CC2)C(=O)c2c(O)cccc2C1=O"
output: 0.6

* * *

# TARGET_SYSTEM: Trypanothione reductase (Trypanosoma cruzi)
# EXPERIMENTAL_PROTOCOL: Rate of NADPH oxidation by TcTR in presence of 100 uM NQ was determined in comparison to intrinsic oxidase activity
Provide the reported x fold of each item.
Give a plain numeric answer without units written out.

input: Give reported x fold value for "CN1CCN(CCCNC(=O)CCCC2=C(CCCC(=O)NCCCN3CCN(C)CC3)C(=O)c3c(O)cccc3C2=O)CC1"
output: 45

input: Give reported x fold value for "CC1=C(CCC(=O)NCCCN2CCN(C)CC2)C(=O)c2ccccc2C1=O"
output: 7

input: Give reported x fold value for "CC1=C(CCCC(=O)NCCCN2CCN(C)CC2)C(=O)c2ccccc2C1=O"
output: 11

input: Give reported x fold value for "CC1=C(CCCC(=O)N2CCN(C)CC2)C(=O)c2c(O)cccc2C1=O"
output: 14

input: Give reported x fold value for "CN1CCN(C(=O)CCCC2=C(CCCC(=O)N3CCN(C)CC3)C(=O)c3c(O)cccc3C2=O)CC1"
output: 220

* * *

# Test system: Leishmania donovani
# EXPERIMENTAL_PROTOCOL: In vitro antiparasitic activity against Leishmania donovani was tested by sigmoidal regression analysis
# Format: functional
Threshold 30 µM: ED50 strictly smaller gives 1, otherwise 0.

input: Given "CC1=C(CCC(=O)NCCCN2CCN(CCCNC(=O)CCC3=C(C)C(=O)c4ccccc4C3=O)CC2)C(=O)c2ccccc2C1=O" , is recorded ED50 strictly lower than 30 µM?
output: 0

input: Given "CN1CCN(CCCNC(=O)CCCC2=C(CCCC(=O)NCCCN3CCN(C)CC3)C(=O)c3c(O)cccc3C2=O)CC1" , is recorded ED50 strictly lower than 30 µM?
output: 0

input: Given "CC1=C(CCCCC(=O)NCCCNCCCNC(=O)CCCCC2=C(C)C(=O)c3ccccc3C2=O)C(=O)c2ccccc2C1=O" , is recorded ED50 strictly lower than 30 µM?
output: 0

input: Given "CC1=C(CCC(=O)NCCCCNCCCNC(=O)CCC2=C(C)C(=O)c3ccccc3C2=O)C(=O)c2ccccc2C1=O" , is recorded ED50 strictly lower than 30 µM?
output: 0

input: Given "O=C(O)CCCCCC1=C(CCCCCC(=O)O)C(=O)c2ccccc2C1=O" , is recorded ED50 strictly lower than 30 µM?
output: 0

input: Given "CC1=C(CCCCC(=O)NCCCCNCCCNC(=O)CCCCC2=C(C)C(=O)c3cccc(O)c3C2=O)C(=O)c2c(O)cccc2C1=O" , is recorded ED50 strictly lower than 30 µM?
output: 1

input: Given "CC1=C(CCCCCC(=O)NCCCNCCCNC(=O)CCCCCC2=C(C)C(=O)c3cccc(O)c3C2=O)C(=O)c2c(O)cccc2C1=O" , is recorded ED50 strictly lower than 30 µM?
output: 1

input: Given "CC1=C(CCC(=O)O)C(=O)c2c(O)cccc2C1=O" , is recorded ED50 strictly lower than 30 µM?
output: 0

input: Given "CC1=C(CCC(=O)N2CCN(C)CC2)C(=O)c2ccccc2C1=O" , is recorded ED50 strictly lower than 30 µM?
output: 0

input: Given "CC1=C(CCCC(=O)NCCCN2CCN(C)CC2)C(=O)c2ccccc2C1=O" , is recorded ED50 strictly lower than 30 µM?
output: 0

input: Given "CC1=C(CCCCC(=O)O)C(=O)c2ccccc2C1=O" , is recorded ED50 strictly lower than 30 µM?
output: 0

input: Given "CC1=C(CCCNC(=O)OC(C)(C)C)C(=O)c2c(O)cccc2C1=O" , is recorded ED50 strictly lower than 30 µM?
output: 1

input: Given "CC1=C(CCC(=O)NCCCNCCCNC(=O)CCC2=C(C)C(=O)c3cccc(O)c3C2=O)C(=O)c2c(O)cccc2C1=O" , is recorded ED50 strictly lower than 30 µM?
output: 0

input: Given "CC1=C(CCCCCC(=O)NCCCN2CCN(CCCNC(=O)CCCCCC3=C(C)C(=O)c4cccc(O)c4C3=O)CC2)C(=O)c2c(O)cccc2C1=O" , is recorded ED50 strictly lower than 30 µM?
output: 1

input: Given "CC1=C(CCCCCC(=O)NCCCN2CCN(CCCNC(=O)CCCCCC3=C(C)C(=O)c4ccccc4C3=O)CC2)C(=O)c2ccccc2C1=O" , is recorded ED50 strictly lower than 30 µM?
output: 1

input: Given "CC1=C(CCCCC(=O)NCCCN2CCN(CCCNC(=O)CCCCC3=C(C)C(=O)c4ccccc4C3=O)CC2)C(=O)c2ccccc2C1=O" , is recorded ED50 strictly lower than 30 µM?
output: 0

input: Given "CC1=C(CCCCC(=O)O)C(=O)c2c(O)cccc2C1=O" , is recorded ED50 strictly lower than 30 µM?
output: 0

input: Given "CC1=C(CCC(=O)NCCCCNCCCNC(=O)CCC2=C(C)C(=O)c3cccc(O)c3C2=O)C(=O)c2c(O)cccc2C1=O" , is recorded ED50 strictly lower than 30 µM?
output: 0

input: Given "CC1=C(NCCCNCCCCNCCCN)C(=O)c2c(O)cccc2C1=O" , is recorded ED50 strictly lower than 30 µM?
output: 0

input: Given "CC1=C(CCCCCNC(=O)OC(C)(C)C)C(=O)c2ccccc2C1=O" , is recorded ED50 strictly lower than 30 µM?
output: 1

input: Given "CC1=C(CCCCCC(=O)NCCCNCCCNC(=O)CCCCCC2=C(C)C(=O)c3ccccc3C2=O)C(=O)c2ccccc2C1=O" , is recorded ED50 strictly lower than 30 µM?
output: 1

input: Given "CC1=C(CCCCNC(=O)OC(C)(C)C)C(=O)c2ccccc2C1=O" , is recorded ED50 strictly lower than 30 µM?
output: 1

input: Given "CC1=C(CCCC(=O)NCCCN2CCN(CCCNC(=O)CCCC3=C(C)C(=O)c4cccc(O)c4C3=O)CC2)C(=O)c2c(O)cccc2C1=O" , is recorded ED50 strictly lower than 30 µM?
output: 0

input: Given "CC1=C(CCCCCC(=O)NCCCCNCCCNC(=O)CCCCCC2=C(C)C(=O)c3ccccc3C2=O)C(=O)c2ccccc2C1=O" , is recorded ED50 strictly lower than 30 µM?
output: 1

input: Given "CC1=C(CCC(=O)NCCCNCCCNC(=O)CCC2=C(C)C(=O)c3ccccc3C2=O)C(=O)c2ccccc2C1=O" , is recorded ED50 strictly lower than 30 µM?
output: 0

input: Given "O=C(O)CCCC1=C(CCCC(=O)O)C(=O)c2c(O)cccc2C1=O" , is recorded ED50 strictly lower than 30 µM?
output: 0

input: Given "CC1=C(CCCCCC(=O)NCCCCNCCCNC(=O)CCCCCC2=C(C)C(=O)c3cccc(O)c3C2=O)C(=O)c2c(O)cccc2C1=O" , is recorded ED50 strictly lower than 30 µM?
output: 0

input: Given "CN1CCN(C(=O)CCCC2=C(CCCC(=O)N3CCN(C)CC3)C(=O)c3c(O)cccc3C2=O)CC1" , is recorded ED50 strictly lower than 30 µM?
output: 0

input: Given "CC1=C(CCCC(=O)N2CCN(C)CC2)C(=O)c2c(O)cccc2C1=O" , is recorded ED50 strictly lower than 30 µM?
output: 0
